B1: ZNF232 (parent)
chain: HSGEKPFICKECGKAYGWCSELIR

# Variants of: B1
# Assay remarks: protein stability index of a GFP-peptide fusion (GPS, HEK-293T) (PSI 1-6); higher = more stable;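 note: lentivirally expressed fusions sorted by FACS into six bins by GFP to DsRed ratio, PSI derived from sequencing read proportions per bin multiplied by bin number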
# Experimental conditions: c terminus: a fixed tail appended
Recorded protein stability index by entry
Form: value (number only, do not type unit).

>>> print(df.to_string())
               biopolymer_sequence  recorded_result
0  HSGEKPFICKECGKAYGWCAELIR [S20A]             2.34
1  HSGEKPFICKECGKAYGWCSELLR [I23L]             2.31
2   HSGEKPNICKECGKAYGWCSELIR [F7N]             2.24
3  HSGEKPFICKECGKANGWCSELIR [Y16N]             1.88

In plain terms, HSGEKPFICKECGKAYGWCSECIR [L22C] has a documented protein stability index of 4.76

Value of measured protein stability index for the entry HSGRKPFICKECGKAYGWCSELIR [E4R] : 1.6

Recorded result, HSGEKPFIDKECGKAYGWCSELIR [C9D] , protein stability index: 2.71

Data origin, for the record: the supplement of paper PMC10567573
